- ASSAY_COMMENT: A549 viability loss, ATP readout – cell-based, plate reader, dry powder, set 8, cytotoxicity control, dose response (AID 743333)
- DETAILS: A549 viability, CellTiter-Glo ATP luminescence, 72 h; at 15 µM (top of the series)
Activity calls are given as the source filed them.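 How the source made its calls: active means signal falls with dose and an IC50 can be fitted at or below twice the top valid tested dose; inconclusive means flat fit showing 30 to 70% loss, or poor fit; inactive means activity in the rising direction, plus the rest.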
# activity change, negative = cytotoxicity values compiled below

| COMPOUND_STRUCTURE_STRING | ENDPOINT_RESULT |
| --- | --- |
| Cc1cnc(NC(=O)c2cc(S(=O)(=O)N(C)C)ccc2N(C)C)s1 | -6.64% (inactive) |
| Cc1cnc(NC(=O)c2cc(S(=O)(=O)N3CCCCC3)ccc2N2CCCC2)s1 | 9.07% (inactive) |
| CN(C)CCCN(Cc1cc2ccccc2[nH]c1=O)C(=O)NCc1ccccc1 | -4.79% (inactive) |

Which activity change, negative = cytotoxicity is reported for this molecule? Cc1cnc(NC(=O)c2cc(S(=O)(=O)N3CCOCC3)ccc2N2CCCC2)s1 -9.98% (inactive)

Which activity change, negative = cytotoxicity is reported for this molecule? COc1ccc2nc(NC(=O)c3cc(S(=O)(=O)N(C)C)ccc3N3CCCC3)sc2c1 -4.45% (inactive)

Which activity change, negative = cytotoxicity is reported for this molecule? Cc1cnc(NC(=O)c2cc(S(=O)(=O)N3CCCC3)ccc2N2CCCC2)s1 0.402% (inactive)

Which activity change, negative = cytotoxicity is reported for this molecule? CN(C)S(=O)(=O)c1ccc(N2CCCC2)c(C(=O)Nc2cccc(F)c2)c1 -8.14% (inactive)

Which activity change, negative = cytotoxicity is reported for this molecule? CN(C)S(=O)(=O)c1ccc(N2CCCC2)c(C(=O)Nc2nccs2)c1 1.36% (inactive)

----------
- ASSAY_COMMENT: A549 viability loss, ATP readout – cell-based, plate reader, dry powder, set 8, cytotoxicity control, dose response (AID 743333)
- DETAILS: A549 viability, CellTiter-Glo ATP luminescence, 72 h; at 15 µM (top of the series)
# activity change, negative = cytotoxicity values compiled below
Report the value in % with no unit label.

Example entries begin here.
| COMPOUND_STRUCTURE_STRING | UNITS_SYMBOL | activity change, negative = cytotoxicity |
| --- | --- | --- |
| Cc1ccc(NC(=O)c2cc(S(=O)(=O)N(C)C)ccc2N2CCCC2)cc1 | % | -13.5 |
| COc1cccc2sc(NC(=O)c3cc(S(=O)(=O)N(C)C)ccc3N3CCCC3)nc12 | % | -2.59 |
| CN(C)CCCN(Cc1cc2ccccc2[nH]c1=O)C(=O)Nc1ccccc1 | % | 2.4 |

Which activity change, negative = cytotoxicity is reported for this compound? Cc1cnc(NC(=O)c2cc(S(=O)(=O)N(C)C)ccc2N2CCC2)s1 -8.88

Which activity change, negative = cytotoxicity is reported for this compound? Cc1cnc(NC(=O)c2cc(S(=O)(=O)N(C)C)ccc2N2CCCC2)s1 -12

Which activity change, negative = cytotoxicity is reported for this compound? Cc1cnc(NC(=O)c2cc(S(=O)(=O)N(C)C)ccc2C2CCCC2)s1 0.274

Which activity change, negative = cytotoxicity is reported for this compound? COc1ccc2sc(NC(=O)c3cc(S(=O)(=O)N(C)C)ccc3N3CCCC3)nc2c1 8.3

----------
- ASSAY_COMMENT: A549 viability loss, ATP readout – cell-based, plate reader, dry powder, set 8, cytotoxicity control, dose response (AID 743333)
- DETAILS: A549 viability, CellTiter-Glo ATP luminescence, 72 h; at 15 µM (top of the series)
# activity change, negative = cytotoxicity values compiled below
Report the value in % with no unit label.

Example entries begin here.
| COMPOUND_STRUCTURE_STRING | activity change, negative = cytotoxicity / % |
| --- | --- |
| CN(C)S(=O)(=O)c1ccc(N2CCCC2)c(C(=O)Nc2ccccc2)c1 | -5.56 |
| Cc1csc(NC(=O)c2cc(S(=O)(=O)N(C)C)ccc2N2CCCC2)n1 | -6.7 |

Please look at the following compound next.
Which activity change, negative = cytotoxicity is reported for this compound? CN(C)S(=O)(=O)c1ccc(N2CCCC2)c(C(=O)Nc2nc3ccccc3s2)c1 -13.7

Reference for the values: PubChem BioAssay AID743333
